# experimental.system: T1, Human 4-1BB extracellular domain recombinant protein (his-tag) (human, UniProt Q07011 24-186)
# T1 construct: extracellular domain; also called Human4-1BB, his-tag; human 4-1BB extracellular region recombinant protein; not shown: his-tag
# protocol.description: ELISA, coated human 4-1BB-his 200 ng/well; antibody 0.12 µg/ml
Would you kindly list absorbance at 450 nm for each of these binders?
No unit in the answer, only the number.

Short answer for 137-1 VHH-hFc recombinant antibody (Fc fusion, also called CD137-1; not shown: human IgG1 Fc tag of the eukaryotic expression vector pFclG) QVQLVESGGGLVQPGGSLRLSCVASGFVFSTVTMGWGRQVPGKEFEWVSGVSSEGITDYADSVKGRFTISRDNAKNTVYLEMNSLKSEDTAEYYCLIGGRWSFGTWGQGTQVTVSS : absorbance at 450 nm was 1.5

Short answer for 137-12 VHH-hFc recombinant antibody (Fc fusion, VHH fragment inserted into vector pFclG with human IgG1 Fc tag, expressed in HEK293F; not shown: human IgG1 Fc tag of the eukaryotic expression vector pFclG) QVQLVESGGGLVHPGGSLRLSCAASGFTLDDSAIGWFRQAPGKEREGVSCRSRSGYMTKYADSVKGRFTISRYNANNTMYLQMNSLKPEDTAVYYCATTRRGYCSGYETKGVDYWGQGIQVTVSS : absorbance at 450 nm was 0.334

Short answer for 137-16 VHH-hFc recombinant antibody (Fc fusion, VHH fragment inserted into vector pFclG with human IgG1 Fc tag, expressed in HEK293F; Preparation had non-specific bands, purity >70%; also called CD137-16; not shown: human IgG1 Fc tag of the eukaryotic expression vector pFclG) EVQLVESGGGLVQAGASLTLSCVISGRTFSSYAMGWYRQAPGKERAFVGTITWNNDIIYSDSVKGRFTISTDDGKNTMYLQMNNLKPEDTAVYYCAAYSVPYGDFCTLNYDLMDYWGKGTLVTVSS : absorbance at 450 nm was 0.704

Short answer for 137-36 VHH-hFc recombinant antibody (Fc fusion, VHH fragment inserted into vector pFclG with human IgG1 Fc tag, expressed in HEK293F; not shown: human IgG1 Fc tag of the eukaryotic expression vector pFclG) QVQLVESGGGLVQTGGSLTLSCVASGRRFEAYTIGWLRQAPGDLREGVGCIFGGTTFTGYDDSVKGRFTISRDTAKNTVYLRMNNLTSEDTATYYCAAEGRPGQIKGQHGCLTPSWYNYKGQGTQVTVSS : absorbance at 450 nm was 0.383
